METHOD_NOTES: Cytotoxicity against human MT4 cells assessed as cell viability after 5 days by MTT assay
Type: cell-based
Please respond with reported CC50 at 120 h for every item in the list.
Numbers only, in µM.

1) Cc1cc(C)c(Oc2ccc([N+](=O)[O-])c(NC3CCN(Cc4ccc(C(=O)O)cc4)CC3)c2)c(C)c1 | 35

Give CC50 at 120 h for all molecules that follow.
1. Cc1cc(C#N)cc(C)c1Oc1ccc([N+](=O)[O-])c(NC2CCN(Cc3ccncc3)CC2)c1
2. Cc1cc(C)c(Oc2ccc([N+](=O)[O-])c(NC3CCN(Cc4ccc(S(C)(=O)=O)cc4)CC3)c2)c(C)c1

1. 19
2. 158

* * *

METHOD_NOTES: Cytotoxicity against human MT4 cells assessed as cell viability after 5 days by MTT assay
Format: cell-based
PROPERTY: CC50 at 120 h (µM)
Give bare numbers, in µM.

Below are worked cases with known answers.
1) Cc1cc(C)c(Oc2ccc([N+](=O)[O-])c(NC3CCN(Cc4ccncc4)CC3)c2)c(C)c1 | 21
2) Cc1cc(C#N)cc(C)c1Oc1ccc([N+](=O)[O-])c(NC2CCN(Cc3ccccc3)CC2)c1 | 2.8

Shifting focus to the compound that follows.
# return recorded CC50 at 120 h for input "Cc1cc(C#N)cc(C)c1Oc1ccc([N+](=O)[O-])c(NC2CCN(Cc3ccc([N+](=O)[O-])cc3)CC2)c1"
182

* * *

METHOD_NOTES: Selectivity index, ratio of CC50 for human MT4 cells to EC50 for HIV1 RES056 harboring reverse transcriptase K103N/Y181C mutant infected in human MT4 cells
Assay type: toxicity, cell-based
PROTOCOL_CONDITIONS: read-out: Ratio CC50/EC50
PROPERTY: selectivity ratio

Below are worked cases with known answers.
1. Cc1cc(C)c(Oc2ccc([N+](=O)[O-])c(NC3CCN(Cc4ccc(C(N)=O)cc4)CC3)c2)c(C)c1 | < 1
2. Cc1cc(C#N)cc(C)c1Oc1ccc(N)c(NC2CCN(Cc3ccc(S(N)(=O)=O)cc3)CC2)c1.Cl | 4.4

Shifting focus to the compound that follows.
# return recorded selectivity ratio for input "Cc1cc(C#N)cc(C)c1Oc1ccc([N+](=O)[O-])c(NC2CCN(Cc3ccc(C(=O)O)cc3)CC2)c1"
< 1

* * *

METHOD_NOTES: Cytotoxicity against human MT4 cells assessed as cell viability after 5 days by MTT assay
Type: cell-based
Please respond with reported CC50 at 120 h for every item in the list.

Give CC50 at 120 h for all compounds that follow.
1. Cc1cc(C#N)cc(C)c1Oc1ccc(N)c(NC2CCN(Cc3ccc(S(N)(=O)=O)cc3)CC2)c1.Cl
2. Cc1cc(C#N)cc(C)c1Oc1ccc([N+](=O)[O-])c(NC2CCN(Cc3ccc(CO)cc3)CC2)c1
3. CC(=O)Nc1ccc(Oc2c(C)cc(C#N)cc2C)cc1NC1CCN(Cc2ccc(S(N)(=O)=O)cc2)CC1
4. Cc1cc(C#N)cc(C)c1Oc1ccc([N+](=O)[O-])c(NC2CCN(Cc3ccc(S(N)(=O)=O)cc3)CC2)c1
5. Cc1cc(C)c(Oc2ccc([N+](=O)[O-])c(NC3CCN(Cc4ccc(S(N)(=O)=O)cc4)CC3)c2)c(C)c1
6. CC(=O)c1ccc(CN2CCC(Nc3cc(Oc4c(C)cc(C)cc4C)ccc3[N+](=O)[O-])CC2)cc1
7. Cc1cc(C)c(Oc2ccc([N+](=O)[O-])c(NC3CCN(Cc4ccc(CO)cc4)CC3)c2)c(C)c1
8. Cc1cc(C#N)cc(C)c1Oc1ccc([N+](=O)[O-])c(NC2CCN(Cc3ccc(C(=O)O)cc3)CC2)c1

22 µM
11 µM
> 228 µM
23 µM
22 µM
138 µM
25 µM
30 µM

* * *

METHOD_NOTES: Cytotoxicity against human MT4 cells assessed as cell viability after 5 days by MTT assay
Format: cell-based
Please respond with reported CC50 at 120 h for every item in the list.

1. Cc1cc(C)c(Oc2ccc([N+](=O)[O-])c(NC3CCN(Cc4ccccc4)CC3)c2)c(C)c1 | 25 µM
2. Cc1cc(C#N)cc(C)c1Oc1ccc([N+](=O)[O-])c(NC2CCN(Cc3ccc(C(N)=O)cc3)CC2)c1 | 27 µM
3. Cc1cc(C)c(Oc2ccc([N+](=O)[O-])c(NC3CCN(Cc4ccc([N+](=O)[O-])cc4)CC3)c2)c(C)c1 | 147 µM

Give CC50 at 120 h for all compounds that follow.
1. Cc1cc(C)c(Oc2ccc([N+](=O)[O-])c(NC3CCN(Cc4ccc(C(N)=O)cc4)CC3)c2)c(C)c1
2. COC(=O)c1ccc(CN2CCC(Nc3cc(Oc4c(C)cc(C)cc4C)ccc3[N+](=O)[O-])CC2)cc1
3. Cc1cn([C@H]2C[C@H](N=[N+]=[N-])[C@@H](CO)O2)c(=O)[nH]c1=O
4. CC(=O)c1ccc(CN2CCC(Nc3cc(Oc4c(C)cc(C#N)cc4C)ccc3[N+](=O)[O-])CC2)cc1
5. CC(C)Nc1cccnc1N1CCN(C(=O)c2cc3cc(NS(C)(=O)=O)ccc3[nH]2)CC1

["27 µM", "> 248 µM", "> 94 µM", "> 251 µM", "> 36 µM"]

* * *

System: Human immunodeficiency virus 2
METHOD_NOTES: Antiviral activity against HIV2 ROD infected in human MT4 cells assessed as inhibition of viral cytopathicity after 5 days by MTT assay
Format: functional, organism-based
PROTOCOL_CONDITIONS: Human immunodeficiency virus 2, ISOLATE ROD, MT4, 120 h
PROPERTY: EC50

Below are worked cases with known answers.
1. O=c1[nH]cnc2c1ncn2[C@H]1CC[C@@H](CO)O1 [DIDANOSINE] | 18 µM
2. Cc1cc(C#N)cc(C)c1Oc1ccc([N+](=O)[O-])c(NC2CCN(Cc3ccc(S(C)(=O)=O)cc3)CC2)c1 | > 234 µM

Shifting focus to the compound that follows.
# return recorded EC50 for input "Cc1cc(C)c(Oc2ccc([N+](=O)[O-])c(NC3CCN(Cc4ccc(S(C)(=O)=O)cc4)CC3)c2)c(C)c1"
> 158 µM

* * *

Please respond with reported EC50 for every item in the list.
System: Human immunodeficiency virus 2
METHOD_NOTES: Antiviral activity against HIV2 ROD infected in human MT4 cells assessed as inhibition of viral cytopathicity after 5 days by MTT assay
Type: functional, organism-based
PROTOCOL_CONDITIONS: Human immunodeficiency virus 2, ISOLATE ROD, MT4, 120 h

1) Cc1cc(C#N)cc(C)c1Oc1ccc([N+](=O)[O-])c(NC2CCN(Cc3ccc(CO)cc3)CC2)c1 | > 11 µM

Give EC50 for all compounds that follow.
1. Cc1cc(C#N)cc(C)c1Oc1ccc([N+](=O)[O-])c(NC2CCN(Cc3ccc(C(N)=O)cc3)CC2)c1
2. CC(=O)Nc1ccc(Oc2c(C)cc(C#N)cc2C)cc1NC1CCN(Cc2ccc(S(N)(=O)=O)cc2)CC1
3. Cc1cc(C)c(Oc2ccc([N+](=O)[O-])c(NC3CCN(Cc4ccc(C(=O)O)cc4)CC3)c2)c(C)c1
4. Cc1cc(C#N)cc(C)c1Oc1ccc(N)c(NC2CCN(Cc3ccc(S(N)(=O)=O)cc3)CC2)c1.Cl
5. Cc1cc(C#N)cc(C)c1Oc1ccc([N+](=O)[O-])c(NC2CCN(Cc3ccccc3)CC2)c1
6. CC(=O)c1ccc(CN2CCC(Nc3cc(Oc4c(C)cc(C#N)cc4C)ccc3[N+](=O)[O-])CC2)cc1
7. Cc1cc(C)c(Oc2ccc([N+](=O)[O-])c(NC3CCN(Cc4ccc(CO)cc4)CC3)c2)c(C)c1

["> 27 µM", "> 228 µM", "> 35 µM", "> 22 µM", "> 2.8 µM", "> 251 µM", "> 25 µM"]

* * *

MEASURED_TARGET: Human immunodeficiency virus type 1 reverse transcriptase (Human immunodeficiency virus 1, UniProt Q72547)
PROPERTY: IC50 (nM)
Give bare numbers, in nM.

# return recorded IC50 for input "Cc1cc(C#N)cc(C)c1Oc1ccc([N+](=O)[O-])c(NC2CCN(Cc3ccc(S(C)(=O)=O)cc3)CC2)c1"
360

* * *

METHOD_NOTES: Selectivity index, ratio of CC50 for human MT4 cells to EC50 for HIV1 3B infected in human MT4 cells
Assay type: toxicity, cell-based
PROTOCOL_CONDITIONS: read-out: Ratio CC50/EC50
PROPERTY: selectivity ratio
Numbers only.

1. Cc1cc(C)c(Oc2ccc([N+](=O)[O-])c(NC3CCN(Cc4ccc(S(C)(=O)=O)cc4)CC3)c2)c(C)c1 | 5900
2. Cc1cc(C#N)cc(C)c1Oc1ccc([N+](=O)[O-])c(NC2CCN(Cc3ccc(CO)cc3)CC2)c1 | 80
3. Cc1cc(C)c(Oc2ccc([N+](=O)[O-])c(NC3CCN(Cc4ccc(CO)cc4)CC3)c2)c(C)c1 | 255
4. Cc1cc(C)c(Oc2ccc([N+](=O)[O-])c(NC3CCN(Cc4ccc(C(=O)O)cc4)CC3)c2)c(C)c1 | 161
5. CC(=O)c1ccc(CN2CCC(Nc3cc(Oc4c(C)cc(C)cc4C)ccc3[N+](=O)[O-])CC2)cc1 | 1310
6. Cc1cc(C)c(Oc2ccc([N+](=O)[O-])c(NC3CCN(Cc4ccncc4)CC3)c2)c(C)c1 | 258
7. Cc1cc(C#N)cc(C)c1Oc1ccc([N+](=O)[O-])c(NC2CCN(Cc3ccc(S(N)(=O)=O)cc3)CC2)c1 | 782

Shifting focus to the compound that follows.
# return recorded selectivity ratio for input "Cc1cc(C#N)cc(C)c1Oc1ccc([N+](=O)[O-])c(NC2CCN(Cc3ccc([N+](=O)[O-])cc3)CC2)c1"
269
